- assayNotes: Microsomal stability
- Assay type: in vitro ADME
- testParameters: mouse liver microsomes; 1 μM compound
Assignment: determine reported clint (in vitro intrinsic clearance) for the given compounds.
Note: state the figure and append the unit.

Exercise: Form field: reported clint (in vitro intrinsic clearance) of `CCN(CC)Cc1ccc(OC)c(-c2cc3c(-c4ccc(C(=O)O)cc4)ccnc3[nH]2)c1`
Solution: 11.01 mL/min/g liver

Exercise: I am curious: what clint (in vitro intrinsic clearance) value has been reported for `CCN(CC)Cc1ccc(OC)c(-c2cc3c(-c4ccc(C(=O)O)c(C)c4)ccnc3[nH]2)c1` ?
Solution: 1.33 mL/min/g liver

Exercise: What clint (in vitro intrinsic clearance) value was documented for this compound, `CCN(CC)Cc1ccc(OC)c(-c2cc3c(-c4ccc(-c5nnn[nH]5)c(C(C)C)c4)ccnc3[nH]2)c1` ?
Solution: 2.32 mL/min/g liver

Exercise: Would you mind telling me what clint (in vitro intrinsic clearance) value was observed for `CCN(CC)Cc1cccc(-c2cc3c(-c4ccc(C(=O)O)c(C(C)C)c4)ccnc3[nH]2)c1OC` ?
Solution: 1.65 mL/min/g liver

Exercise: Recorded clint (in vitro intrinsic clearance) for `COc1ccc(CN2CCCC2)cc1-c1cc2c(-c3ccc(C(=O)O)c(C(C)C)c3)ccnc2[nH]1` , please?
Solution: 1.94 mL/min/g liver

Exercise: Which value of clint (in vitro intrinsic clearance) has been reported for `CCOC(=O)c1ccc(-c2ccnc3[nH]c(-c4cc(CN(CC)CC)ccc4OC)cc23)cc1C(C)C` in the records?
Solution: 16.06 mL/min/g liver

Reference source for all entries: paper PMC7497403
